# assayTarget: constitutively active SAM-TIR protein of human SARM1 (Homo sapiens, UniProt Q6SZW1)
# Sequence (Q6SZW1 409-700): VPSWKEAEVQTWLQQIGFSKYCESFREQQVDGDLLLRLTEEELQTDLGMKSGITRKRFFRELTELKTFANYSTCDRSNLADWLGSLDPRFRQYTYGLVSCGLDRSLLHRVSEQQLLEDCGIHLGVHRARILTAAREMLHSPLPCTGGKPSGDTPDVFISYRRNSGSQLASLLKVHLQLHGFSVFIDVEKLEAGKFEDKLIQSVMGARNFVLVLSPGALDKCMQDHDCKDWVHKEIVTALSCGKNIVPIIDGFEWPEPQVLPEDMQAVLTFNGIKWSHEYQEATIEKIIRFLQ
experimentalEndpoint: pIC50
Convention used: pIC50 is expressed as -log10 of the molar concentration.

Incoming: Entry Oc1cccc2cnccc12 [compound 3, 5-hydroxyisoquinoline] , system constitutively active SAM-TIR protein of human SARM1 (Homo sapiens, UniProt Q6SZW1): what pIC50 was measured?
Outgoing: 5.59
